System: Enterococcus faecalis
test: In vitro antibacterial activity against Enterococcus faecalis MB4996 organism
Assay type: functional
The entries below come with measured MIC values attached.
quantity.name: MIC

{"record.smiles": "CCCN(C)C(=S)SC1=C(C(=O)O)N2C(=O)[C@H]([C@@H](C)O)[C@H]2[C@H]1C", "result": "6.25 µg/mL"}
{"record.smiles": "CCN(C)C(=S)SC1=C(C(=O)O)N2C(=O)[C@H]([C@@H](C)O)[C@H]2[C@H]1C", "result": "6.25 µg/mL"}
{"record.smiles": "C[C@@H](O)[C@H]1C(=O)N2C(C(=O)O)=C(SC(=S)N(C)Cc3ccccc3)[C@H](C)[C@H]12", "result": "1.56 µg/mL"}
{"record.smiles": "C[C@@H](O)[C@H]1C(=O)N2C(C(=O)O)=C(SC(=S)N(C)c3ccccc3)[C@H](C)[C@H]12", "result": "6.25 µg/mL"}
{"record.smiles": "CCN(CCO)C(=S)SC1=C(C(=O)O)N2C(=O)[C@H]([C@@H](C)O)[C@H]2[C@H]1C", "result": "6.25 µg/mL"}
{"record.smiles": "C[C@@H](O)[C@H]1C(=O)N2C(C(=O)O)=C(SC(=S)N(C)c3cccs3)[C@H](C)[C@H]12", "result": "3.13 µg/mL"}
{"record.smiles": "C[C@@H](O)[C@H]1C(=O)N2C(C(=O)O)=C(SC(=S)N3CCCCCC3)[C@H](C)[C@H]12", "result": "6.25 µg/mL"}
{"record.smiles": "C[C@@H](O)[C@H]1C(=O)N2C(C(=O)O)=C(SC(=S)N3CCCC3)[C@H](C)[C@H]12", "result": "12.5 µg/mL"}

* * *

Test system: Staphylococcus aureus
test: Compound was tested in vivo for its anti-methicillin-resistant staphylococcus aureus(MRSA)
Type: functional
Just a reminder that ties go to label 0: only ED50 strictly below 6 mg/kg counts as label 1.

{"molecule": "C[C@@H](O)[C@H]1C(=O)N2C(C(=O)[O-])=C(SC(=S)N3CC[N+](C)(Cc4ccccc4)CC3)[C@H](C)[C@H]12", "category.label": "label 0"}
{"molecule": "C[C@@H](O)[C@H]1C(=O)N2C(C(=O)O)=C(SC(=S)N3CCCC(O)CC3)[C@H](C)[C@H]12 (stereo partly specified)", "category.label": "label 1"}
{"molecule": "C[C@@H](O)[C@H]1C(=O)N2C(C(=O)O)=C(SC(=S)N(C)CCO)[C@H](C)[C@H]12", "category.label": "label 1"}
{"molecule": "C[C@@H](O)[C@H]1C(=O)N2C(C(=O)O)=C(SC(=S)N3CCCC3)[C@H](C)[C@H]12", "category.label": "label 0"}
{"molecule": "C[C@@H](O)[C@H]1C(=O)N2C(C(=O)O)=C(SC(=S)N(C)Cc3cccc4ccccc34)[C@H](C)[C@H]12", "category.label": "label 0"}

* * *

test: PBP-2'' affinity was determined by the competition assay with [14C]benzylpenicillin using membrane isolated from MRSA BB6294 strain
Format: functional, Staphylococcus aureus

{"molecule": "C[C@@H](O)[C@H]1C(=O)N2C(C(=O)O)=C(SC(=S)N(C)CCO)[C@H](C)[C@H]12", "IC50, µg/mL": 3.8}
{"molecule": "C[C@@H](O)[C@H]1C(=O)N2C(C(=O)O)=C(SC(=S)N(C)C)[C@H](C)[C@H]12", "IC50, µg/mL": 9.6}
{"molecule": "C[C@@H](O)[C@H]1C(=O)N2C(C(=O)O)=C(SC(=S)N3CCCC(O)CC3)[C@H](C)[C@H]12 (some centres undefined)", "IC50, µg/mL": 1.9}
{"molecule": "C[C@@H](O)[C@H]1C(=O)N2C(C(=O)O)=C(SC(=S)N3CCCC3)[C@H](C)[C@H]12", "IC50, µg/mL": 5.6}

* * *

Organism: Mus musculus
test: Compound was measured for binding rate for mouse serum at a carbapenem concentration of 10 ug/mL
Type: functional
The entries below come with measured PPB values attached.
quantity.name: PPB (%)

{"compound": "C[C@@H](O)[C@H]1C(=O)N2C(C(=O)O)=C(SC(=S)N(C)Cc3cccc4ccccc34)[C@H](C)[C@H]12", "unit.spec": "%", "quantitative.readout": 99}
{"compound": "C[C@@H](O)[C@H]1C(=O)N2C(C(=O)O)=C(SC(=S)N(C)CCO)[C@H](C)[C@H]12", "unit.spec": "%", "quantitative.readout": 58}
{"compound": "C[C@@H](O)[C@H]1C(=O)N2C(C(=O)[O-])=C(SC(=S)N3CC[N+](C)(Cc4ccccc4)CC3)[C@H](C)[C@H]12", "unit.spec": "%", "quantitative.readout": 82}
{"compound": "C[C@@H](O)[C@H]1C(=O)N2C(C(=O)O)=C(SC(=S)N3CCCC3)[C@H](C)[C@H]12", "unit.spec": "%", "quantitative.readout": 95}
{"compound": "C[C@@H](O)[C@H]1C(=O)N2C(C(=O)O)=C(SC(=S)N3CCCC(O)CC3)[C@H](C)[C@H]12 (stereo partly specified)", "unit.spec": "%", "quantitative.readout": 92}
{"compound": "C[C@@H](O)[C@H]1C(=O)N2C(C(=O)O)=C(SC(=S)N(C)C)[C@H](C)[C@H]12", "unit.spec": "%", "quantitative.readout": 69}

* * *

target.under.test: Dipeptidase 1 (Sus scrofa) (UniProt P22412)
Sequence (P22412 whole entry): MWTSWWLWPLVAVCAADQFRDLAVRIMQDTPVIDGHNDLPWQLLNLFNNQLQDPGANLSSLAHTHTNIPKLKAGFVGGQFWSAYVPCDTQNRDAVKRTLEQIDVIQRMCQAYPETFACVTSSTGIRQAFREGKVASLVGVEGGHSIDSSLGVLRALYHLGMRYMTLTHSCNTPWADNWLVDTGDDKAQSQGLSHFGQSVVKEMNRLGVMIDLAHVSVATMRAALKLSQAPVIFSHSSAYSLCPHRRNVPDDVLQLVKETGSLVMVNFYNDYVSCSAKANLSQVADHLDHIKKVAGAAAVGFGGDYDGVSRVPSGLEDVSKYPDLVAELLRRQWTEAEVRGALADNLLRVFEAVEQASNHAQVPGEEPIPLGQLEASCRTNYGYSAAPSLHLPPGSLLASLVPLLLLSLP
test: Relative rate of hydrolysis of porcine renal dehydropeptidase-I (DHP-I) to imipenem
Assay type: functional
Rule: DHP-I susceptibility of 2 or more gives 1; anything lower gives -1.

{"compound": "C[C@@H](O)[C@H]1C(=O)N2C(C(=O)[O-])=C(SC(=S)N3CC[N+](C)(Cc4ccccc4)CC3)[C@H](C)[C@H]12", "target.under.test": "Dipeptidase 1 (Sus scrofa) (UniProt P22412)", "category.label": -1}
{"compound": "C[C@@H](O)[C@H]1C(=O)N2C(C(=O)O)=C(SC(=S)N3CCN(C)CC3)[C@H](C)[C@H]12", "target.under.test": "Dipeptidase 1 (Sus scrofa) (UniProt P22412)", "category.label": -1}
{"compound": "C[C@@H](O)[C@H]1C(=O)N2C(C(=O)O)=C(SC(=S)N(C)C)[C@H](C)[C@H]12", "target.under.test": "Dipeptidase 1 (Sus scrofa) (UniProt P22412)", "category.label": 1}
{"compound": "C[C@@H](O)[C@H]1C(=O)N2C(C(=O)O)=C(SC(=S)N3CCCC3)[C@H](C)[C@H]12", "target.under.test": "Dipeptidase 1 (Sus scrofa) (UniProt P22412)", "category.label": 1}
{"compound": "C[C@@H](O)[C@H]1C(=O)N2C(C(=O)O)=C(SC(=S)N3CCC3)[C@H](C)[C@H]12", "target.under.test": "Dipeptidase 1 (Sus scrofa) (UniProt P22412)", "category.label": 1}
{"compound": "CCN(CCO)C(=S)SC1=C(C(=O)O)N2C(=O)[C@H]([C@@H](C)O)[C@H]2[C@H]1C", "target.under.test": "Dipeptidase 1 (Sus scrofa) (UniProt P22412)", "category.label": 1}
{"compound": "C[C@@H](O)[C@H]1C(=O)N2C(C(=O)O)=C(SC(=S)N3CCC(O)CC3)[C@H](C)[C@H]12", "target.under.test": "Dipeptidase 1 (Sus scrofa) (UniProt P22412)", "category.label": 1}
{"compound": "CCN(CC)C(=S)SC1=C(C(=O)O)N2C(=O)[C@H]([C@@H](C)O)[C@H]2[C@H]1C", "target.under.test": "Dipeptidase 1 (Sus scrofa) (UniProt P22412)", "category.label": 1}
{"compound": "C[C@@H](O)[C@H]1C(=O)N2C(C(=O)O)=C(SC(=S)N3CCCC(O)CC3)[C@H](C)[C@H]12 (stereo not given in full)", "target.under.test": "Dipeptidase 1 (Sus scrofa) (UniProt P22412)", "category.label": 1}
{"compound": "C[C@@H](O)[C@H]1C(=O)N2C(C(=O)O)=C(SC(=S)N3CCC(O)C3)[C@H](C)[C@H]12 (stereo not given in full)", "target.under.test": "Dipeptidase 1 (Sus scrofa) (UniProt P22412)", "category.label": 1}
{"compound": "C[C@@H](O)[C@H]1C(=O)N2C(C(=O)O)=C(SC(=S)N3CC(O)C3)[C@H](C)[C@H]12", "target.under.test": "Dipeptidase 1 (Sus scrofa) (UniProt P22412)", "category.label": 1}
{"compound": "C[C@@H](O)[C@H]1C(=O)N2C(C(=O)O)=C(SCCNC=N)C[C@H]12 [IMIPENEM ANHYDROUS]", "target.under.test": "Dipeptidase 1 (Sus scrofa) (UniProt P22412)", "category.label": -1}
{"compound": "C[C@@H](O)[C@H]1C(=O)N2C(C(=O)O)=C(SC(=S)N(C)c3ccccc3)[C@H](C)[C@H]12", "target.under.test": "Dipeptidase 1 (Sus scrofa) (UniProt P22412)", "category.label": 1}
{"compound": "C[C@@H](O)[C@H]1C(=O)N2C(C(=O)O)=C(SC(=O)N3CCCC3)[C@H](C)[C@H]12", "target.under.test": "Dipeptidase 1 (Sus scrofa) (UniProt P22412)", "category.label": -1}
{"compound": "CCN(C)C(=S)SC1=C(C(=O)O)N2C(=O)[C@H]([C@@H](C)O)[C@H]2[C@H]1C", "target.under.test": "Dipeptidase 1 (Sus scrofa) (UniProt P22412)", "category.label": 1}
{"compound": "C=CCN(CCCO)C(=S)SC1=C(C(=O)O)N2C(=O)[C@H]([C@@H](C)O)[C@H]2[C@H]1C", "target.under.test": "Dipeptidase 1 (Sus scrofa) (UniProt P22412)", "category.label": -1}
{"compound": "C[C@@H](O)[C@H]1C(=O)N2C(C(=O)O)=C(SC(=S)N3CCCC3)C[C@H]12", "target.under.test": "Dipeptidase 1 (Sus scrofa) (UniProt P22412)", "category.label": 1}
{"compound": "C[C@@H](O)[C@H]1C(=O)N2C(C(=O)O)=C(SC(=S)N3CCCCCC3)[C@H](C)[C@H]12", "target.under.test": "Dipeptidase 1 (Sus scrofa) (UniProt P22412)", "category.label": 1}
{"compound": "C[C@@H](O)[C@H]1C(=O)N2C(C(=O)O)=C(SC(=S)N(C)Cc3ccccc3)[C@H](C)[C@H]12", "target.under.test": "Dipeptidase 1 (Sus scrofa) (UniProt P22412)", "category.label": -1}
{"compound": "C[C@@H](O)[C@H]1C(=O)N2C(C(=O)O)=C(SC(=S)N(C)CCO)[C@H](C)[C@H]12", "target.under.test": "Dipeptidase 1 (Sus scrofa) (UniProt P22412)", "category.label": -1}
{"compound": "C[C@@H](O)[C@H]1C(=O)N2C(C(=O)O)=C(SC(=S)N3CCCCC3)[C@H](C)[C@H]12", "target.under.test": "Dipeptidase 1 (Sus scrofa) (UniProt P22412)", "category.label": 1}
{"compound": "C[C@@H](O)[C@H]1C(=O)N2C(C(=O)O)=C(SC(=S)N(C)Cc3cccc4ccccc34)[C@H](C)[C@H]12", "target.under.test": "Dipeptidase 1 (Sus scrofa) (UniProt P22412)", "category.label": 1}
{"compound": "CCCN(C)C(=S)SC1=C(C(=O)O)N2C(=O)[C@H]([C@@H](C)O)[C@H]2[C@H]1C", "target.under.test": "Dipeptidase 1 (Sus scrofa) (UniProt P22412)", "category.label": 1}
{"compound": "C[C@@H](O)[C@H]1C(=O)N2C(C(=O)[O-])=C(SC(=S)N3CC[N+](C)(C)CC3)[C@H](C)[C@H]12", "target.under.test": "Dipeptidase 1 (Sus scrofa) (UniProt P22412)", "category.label": -1}
